assay: Plasma concentration in rat at 10 mg/kg measured after 6 hrs; assay type: ADME, organism-based; parameters: dose 10 mg/kg
Labelling: concentration at 6 h reported below 100 ng/g becomes Met; at or above becomes Not met.

Check out these entries, answers already filled in.
CC(=O)NCC(=O)N1CCC2(CC1)CCN(Cc1ccc(C(C)(C)C)cc1)c1ccccc1O2
Not met
N#Cc1cnc(N2CCC3(CC2)CCN(Cc2cccc(C(F)(F)F)c2)c2ccccc2O3)s1
Met
CNC(=O)c1cccc(NC(=O)N2CCC(Oc3ccccc3Cl)CC2)c1
Met

hey, is concentration at 6 h for CC(C)(C)c1ccc(CN2CCC3(CCN(C(=O)CNC(=O)c4cccnc4)CC3)Oc3ccccc32)cc1 lower than 100 ng/g or not?
Met

hey, is concentration at 6 h for O=C(O)c1cnc(N2CCC3(CC2)CCN(Cc2cccc(C(F)(F)F)c2)c2ccccc2O3)s1 lower than 100 ng/g or not?
Not met

hey, is concentration at 6 h for CCc1ccc(CN2CCC3(CCN(C(=O)CNC(C)=O)CC3)Oc3ccccc32)cc1 lower than 100 ng/g or not?
Met

----------
target: Acyl-CoA desaturase 1 (Rattus norvegicus, UniProt P07308); assay: Inhibition of rat SCD1 by rat microsomal assay
assay_readout: IC50 (nM)
// return numeric value only (unit: nM, not printed)

Some solved entries appear below for comparison.
O=C(O)Cn1nnc(-c2cc(N3CCC(Oc4ccccc4C(F)(F)F)CC3)no2)n1
3
O=C(NCCC1CC1)c1ccc(N2CCC3(CC2)CCN(Cc2cccc(C(F)(F)F)c2)c2ccccc2O3)cc1
2200
O=C(O)c1ccc(N2CCC3(CC2)CCN(Cc2cccc(C(F)(F)F)c2)c2ccccc2O3)nn1
4700
Fc1cccc2c1CCC1(CCN(c3ccc(-c4nnc(Cc5cccnc5)o4)nn3)CC1)O2
2

Consider the record given below.
Query: IC50; subject: CC(=O)NCC(=O)N1CCC2(CC1)CCN(Cc1cccc(OC(F)(F)F)c1)c1ccccc1O2
680

----------
Reported values of log10 concentration at 6 h for individual entries
assay: Drug level in liver in rat at 10 mg/kg measured after 6 hrs; format: ADME, organism-based; set-up: dose 10 mg/kg; conditions: read-out: Drug uptake
Response schema: value (number) is log10 of concentration at 6 h in units of ng/g.

Some solved entries appear below for comparison.
CC(=O)NCC(=O)N1CCC2(CC1)CCN(CCc1ccc(C(C)C)cc1)c1ccccc1O2
3.22
CNC(=O)c1cccc(NC(=O)N2CCC(Oc3ccccc3Cl)CC2)c1
2.72
CC(=O)NCC(=O)N1CCC2(CC1)CCN(Cc1ccc(C(C)(C)C)cc1)c1ccccc1O2
3.43
O=C(O)c1cnc(N2CCC3(CC2)CCN(Cc2cccc(C(F)(F)F)c2)c2ccccc2O3)s1
4.28
CC(C)(C)c1ccc(CN2CCC3(CCN(C(=O)CNC(=O)c4cccnc4)CC3)Oc3ccccc32)cc1
2.37

Consider the record given below.
Query: log10 concentration at 6 h; subject: N#Cc1cnc(N2CCC3(CC2)CCN(Cc2cccc(C(F)(F)F)c2)c2ccccc2O3)s1
3.18

----------
test: AUC (0 to 24 hrs) in CD-1 mouse at 30 mg/kg, po; assay type: ADME, organism-based; design: time < 24 hr, dose 30 mg/kg, route oral; details: plasma
assay_readout: AUC(0-t) at 24 h (µM·h)
// return numeric value only (unit: µM·h, not printed)

Query: AUC(0-t) at 24 h; subject: O=C(O)c1cnc(N2CCC3(CC2)CCN(Cc2cccc(C(F)(F)F)c2)c2ccccc2O3)s1
114

----------
experiment: Ratio of drug level in liver to plasma of rat at 10 mg/kg measured after 6 hrs; type: ADME, organism-based; design: dose 10 mg/kg
assay_readout: Kp at 6 h
Format: numeric value only, no unit, no commentary.

Some solved entries appear below for comparison.
CC(C)(C)c1ccc(CN2CCC3(CCN(C(=O)CNC(=O)c4cccnc4)CC3)Oc3ccccc32)cc1
13
O=C(O)c1cnc(N2CCC3(CC2)CCN(Cc2cccc(C(F)(F)F)c2)c2ccccc2O3)s1
56
CC(=O)NCC(=O)N1CCC2(CC1)CCN(Cc1ccc(C(C)(C)C)cc1)c1ccccc1O2
13
CNC(=O)c1cccc(NC(=O)N2CCC(Oc3ccccc3Cl)CC2)c1
8
N#Cc1cnc(N2CCC3(CC2)CCN(Cc2cccc(C(F)(F)F)c2)c2ccccc2O3)s1
20

Query: Kp at 6 h; subject: CC(=O)NCC(=O)N1CCC2(CC1)CCN(CCc1ccc(C(C)C)cc1)c1ccccc1O2
17

----------
test: Cmax in rat at 10 mg/kg; format: ADME, organism-based; set-up: dose 10 mg/kg; details: in vivo
Reported values of Cmax for individual entries
// return numeric value only (unit: ng/g, not printed)

O=C(NCCC1CC1)c1ccc(N2CCC3(CC2)CCN(Cc2cccc(C(F)(F)F)c2)c2ccccc2O3)nn1
209
NC(=O)c1cnc(N2CCC3(CC2)CCN(Cc2cccc(C(F)(F)F)c2)c2ccccc2O3)s1
45
CC(=O)NCC(=O)N1CCC2(CC1)CCN(Cc1ccc(C(C)(C)C)cc1)c1ccccc1O2
1100
O=C(O)c1cnc(N2CCC3(CC2)CCN(Cc2cccc(C(F)(F)F)c2)c2ccccc2O3)s1
495
N#Cc1cnc(N2CCC3(CC2)CCN(Cc2cccc(C(F)(F)F)c2)c2ccccc2O3)s1
105

Query: Cmax; subject: CCc1ccc(CN2CCC3(CCN(C(=O)CNC(C)=O)CC3)Oc3ccccc32)cc1
579

Query: Cmax; subject: CNC(=O)c1cccc(NC(=O)N2CCC(Oc3ccccc3Cl)CC2)c1
599

Query: Cmax; subject: CC(C)(C)c1ccc(CN2CCC3(CCN(C(=O)CNC(=O)c4cccnc4)CC3)Oc3ccccc32)cc1
169

Query: Cmax; subject: CC(=O)NCC(=O)N1CCC2(CC1)CCN(CCc1ccc(C(C)C)cc1)c1ccccc1O2
875

Query: Cmax; subject: O=C(NCCC1CC1)c1ccc(N2CCC3(CC2)CCN(Cc2cccc(C(F)(F)F)c2)c2ccccc2O3)nc1
45

----------
Reported values of IC50 for individual entries
molecular target: Acyl-CoA desaturase 1 (Rattus norvegicus)
// return numeric value only (unit: nM, not printed)

Some solved entries appear below for comparison.
COc1cccc(CN2CCC3(CCN(C(=O)CNC(C)=O)CC3)Oc3ccccc32)c1
1800
Cc1c(C(=O)Nc2ccn(C)n2)ncn1Cc1cccc(C(F)(F)F)c1
11.7

Consider the record given below.
Recorded IC50 for O=C(NCC(=O)N1CCC2(CC1)CCN(Cc1cccc(C(F)(F)F)c1)c1ccccc1O2)c1ccccc1 with Acyl-CoA desaturase 1 (Rattus norvegicus), please?
2600

----------
test: Plasma concentration in AKR/J mouse at 3 mg/kg measured after 4 hrs; assay type: ADME, organism-based; design: dose 3 mg/kg
assay_readout: concentration at 4 h

Query: concentration at 4 h; subject: O=C(O)c1cnc(N2CCC3(CC2)CCN(Cc2cccc(C(F)(F)F)c2)c2ccccc2O3)s1
45 ng/mL

----------
Reported values of IC50 for individual entries
Biological target: Acyl-CoA desaturase 1 (Rattus norvegicus, UniProt P07308)
Sequence (P07308 whole entry): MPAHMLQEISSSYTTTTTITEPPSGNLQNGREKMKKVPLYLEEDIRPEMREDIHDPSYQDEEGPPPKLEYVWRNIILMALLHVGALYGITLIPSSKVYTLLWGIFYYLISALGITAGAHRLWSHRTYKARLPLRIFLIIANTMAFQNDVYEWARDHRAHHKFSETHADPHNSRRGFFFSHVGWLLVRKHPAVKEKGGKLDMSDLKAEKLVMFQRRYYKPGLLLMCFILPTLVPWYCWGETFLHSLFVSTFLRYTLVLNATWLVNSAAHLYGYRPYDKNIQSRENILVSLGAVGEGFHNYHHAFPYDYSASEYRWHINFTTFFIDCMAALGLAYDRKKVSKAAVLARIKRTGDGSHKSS
// return numeric value only (unit: nM, not printed)

Query: IC50; subject: CC(=O)NCC(=O)N1CCC2(CC1)CCN(CCc1ccccc1)c1ccccc1O2
1600

Query: IC50; subject: CC(C)(C)c1ccc(CN2CCC3(CCN(C(=O)CNC(=O)c4cccnc4)CC3)Oc3ccccc32)cc1
1500

Query: IC50; subject: NC(=O)c1ccc(N2CCC3(CC2)CCN(Cc2cccc(C(F)(F)F)c2)c2ccccc2O3)nn1
10

Query: IC50; subject: CC(=O)NCC(=O)N1CCC2(CC1)CCN(Cc1ccc(C(C)(C)C)cc1)c1ccccc1O2
17

Query: IC50; subject: O=C(CO)Nc1ccc2ncn(Cc3ccc(Cl)c(Cl)c3)c(=O)c2c1
261

Query: IC50; subject: CC(=O)NCC(=O)N1CCC2(CC1)CCN(Cc1cccc(Cl)c1)c1ccccc1O2
830

----------
assay: AUC (0 to 24 hrs) in CD-1 mouse at 100 mg/kg, po; format: ADME, organism-based; design: time < 24 hr, dose 100 mg/kg, route oral; conditions: plasma
assay_readout: AUC(0-t) at 24 h (µM·h)
// return numeric value only (unit: µM·h, not printed)

Query: AUC(0-t) at 24 h; subject: O=C(O)c1cnc(N2CCC3(CC2)CCN(Cc2cccc(C(F)(F)F)c2)c2ccccc2O3)s1
565
